All values here come from the supplement of paper PMC10567573.

B1: DCAF4 (parent)
chain: PGIDRPGMLCSFRIPGAWSCAWSL

# Variants of: B1
# method_notes: protein stability index of a GFP-peptide fusion (GPS, HEK-293T) (PSI 1-6); higher = more stable;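 note: lentivirally expressed fusions sorted by FACS into six bins by GFP to DsRed ratio, PSI derived from sequencing read proportions per bin multiplied by bin number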
# conditions_used: c terminus: a fixed tail appended
Exercise: for every item that follows, state its recorded protein stability index.
One number for each entry.

Examples from the recorded data:
{"columns": ["mutation_string", "reported"],
 "data": [
  ["F12E", 2.5],
  ["P6V", 2.93],
  ["I14H", 2.46],
  ["C20K", 1.81],
  ["R13E", 3.65],
  ["I14L", 2.47],
  ["G16L", 3.68],
  ["L24I", 2.42]
]}

For the next question, use this variant.
[ask] protein stability index lookup needed for `L24R` , thanks.
[reply] 1.47
